# TGT: UniProt:P30968
# PROTOCOL: IP-One HTRF assay with buserelin (at EC80) stimulation
# CONDITION_SUMMARY: CHO cells stably expressing human GnRH receptor, read-out: Potency in IP-One HTRF assay, given as IC50
Please respond with reported IC50 for every item in the list.
One number for each entry, in nM.

Some compounds with known IC50 results, for comparison:
Fill in: IC50 of CC1N(S(=O)(=O)c2ccc(F)cc2)c2ccc(C(=O)NCc3ccccc3C(F)(F)F)cc2C12CCOCC2 (stereo not shown) is ___
281

Data request, read-out IC50, for N#Cc1cccc(S(=O)(=O)N2c3ccc(C(=O)Nc4ccon4)cc3C3(CCS(=O)(=O)CC3)C2C2CC2)c1 (stereo not shown) [Example 80]
218

Using the record for N#Cc1cccc(S(=O)(=O)N2c3ccc(C(=O)Nc4cncc(Cl)c4)cc3C3(CCS(=O)(=O)CC3)C2C2CC2)c1 (stereo not shown) [Example 77] , report its IC50.
700

Please look up its IC50: CC1N(S(=O)(=O)c2ccc(F)cc2)c2ccc(C(=O)NCc3ccccc3C#N)cc2C12CCOCC2 (stereo not shown)
2510

For O=C(Nc1ccccc1Cl)c1ccc2c(c1)C1(CCS(=O)(=O)CC1)C(C1CC1)N2S(=O)(=O)c1ccc(F)cc1 (stereo not shown) , what is its reported IC50?
113

Below are 7 compounds. Give each one its IC50.
1. O=C(NCc1ccccc1Cl)c1ccc2c(c1)C1(CCSCC1)C(C1CC1)N2S(=O)(=O)c1ccc(F)cc1 (racemic) [Example 12]
2. O=C(Nc1ccon1)c1ccc2c(c1)C1(CCS(=O)(=O)CC1)C(C1CC1)N2S(=O)(=O)c1ccc(F)cc1 (single isomer, unassigned) [Example 63.2]
3. O=C(NCC1CCCCC1)c1ccc2c(c1)C1(CCS(=O)(=O)CC1)C(C1CC1)N2S(=O)(=O)c1ccc(F)cc1 (stereo not shown) [Example 36]
4. COc1cccc(S(=O)(=O)N2c3ccc(C(=O)NCc4ccccc4C(F)(F)F)cc3C3(CCS(=O)(=O)CC3)C2C2CC2)c1 (stereo not shown) [Example 40]
5. N#Cc1ccc(S(=O)(=O)N2c3ccc(C(=O)NCc4ncccc4Cl)cc3C3(CCS(=O)(=O)CC3)C2C2CC2)cc1 (stereo not shown) [Example 70]
6. COC(=O)c1cccc(S(=O)(=O)N2c3ccc(C(=O)NCc4ccccc4Cl)cc3C3(CCS(=O)(=O)CC3)C2C2CC2)c1 (stereo not shown) [Example 60]
7. O=C(NCc1ccccc1C(F)(F)F)c1ccc2c(c1)C1(CCS(=O)(=O)CC1)C(C1CC1)N2S(=O)(=O)c1ccc(F)cc1 (single isomer, unassigned) [Example 32.2]

1. 186
2. 3430
3. 169
4. 32
5. 63
6. 192
7. 1260

State the recorded IC50 for this entry: O=C(NCc1ccccc1Cl)c1ccc2c(c1)C1(CCSCC1)C(C1CC1)N2S(=O)(=O)c1ccc(F)cc1 (single isomer, unassigned) [Example 12.1]
178

----------
# TGT: human GnRH receptor (Homo sapiens)
# Sequence (P30968 whole entry): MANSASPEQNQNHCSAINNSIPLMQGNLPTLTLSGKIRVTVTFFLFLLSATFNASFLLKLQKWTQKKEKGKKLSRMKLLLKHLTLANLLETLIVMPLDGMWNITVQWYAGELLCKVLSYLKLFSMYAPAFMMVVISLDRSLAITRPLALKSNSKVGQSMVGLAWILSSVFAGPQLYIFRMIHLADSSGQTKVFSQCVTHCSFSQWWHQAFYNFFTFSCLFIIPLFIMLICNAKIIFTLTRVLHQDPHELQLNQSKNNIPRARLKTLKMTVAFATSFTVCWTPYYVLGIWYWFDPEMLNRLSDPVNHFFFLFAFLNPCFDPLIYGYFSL
# PROTOCOL: IP-One HTRF assay with buserelin (at EC80) stimulation
# CONDITION_SUMMARY: CHO cells stably expressing human GnRH receptor, read-out: Potency in IP-One HTRF assay, given as IC50
ATTRIBUTE_MEASURED: pIC50
Numbers only, as −log10 of the molar value.

// returns reported pIC50 for input COC(=O)c1cccc(NC(=O)c2ccc3c(c2)C2(CCS(=O)(=O)CC2)C(C2CC2)N3S(=O)(=O)c2ccc(F)cc2)c1 (single isomer, unassigned) [Example 34.2]
6.08

Can you share its pIC50? I mean this compound: COC(=O)c1cccc(NC(=O)c2ccc3c(c2)C2(CCS(=O)(=O)CC2)C(C2CC2)N3S(=O)(=O)c2cccc(OC(F)F)c2)c1 (single isomer, unassigned) [Example 89.1]
7.20

As a next step, examine the compound that follows.
Entry CN(C)S(=O)(=O)c1cccc(NC(=O)c2ccc3c(c2)C2(CCS(=O)(=O)CC2)C(C2CC2)N3S(=O)(=O)c2ccc(F)cc2)c1 (single isomer, unassigned) [Example 37.1] : reported pIC50 = ?
5.67
